Recorded Ki values for a group of compounds are listed next.
# system-name: purified human plasma kallikrein (Homo sapiens (Human))
# protocol: Plasma kallikrein enzyme inhibition assay (chromogenic substrate S-2302)
# Type: biochemical
# test-settings: measured at 37° C. (*)
Where a name gives a salt, the structure may show the parent alone.
measure-name: Ki

INSERT INTO measurements (compound, measure_name, recorded_measurement) VALUES
  ('CC(C)c1nnc2n1CCN(c1cccc3c1CCN(C(=O)[C@H]1CC(c4cccc(Cl)c4F)=NO1)[C@@H]3C(=O)Nc1ccc(C(=O)O)cc1)C2 [Example 336, TFA salt]', 'Ki', '0.0014 µM'),
  ('COC1CCN(c2cccc3c2CCN(C(=O)c2cnn(-c4cccc(Cl)c4)c2C(F)(F)F)C3C(=O)Nc2ccc(C(=O)O)cc2)CC1 (stereo not drawn) [Example 150, TFA salt]', 'Ki', '> 6 µM'),
  ('COC1CCN(c2cccc3c2CCN(C(=O)c2cnn(-c4ccc5nonc5c4)c2)C3C(=O)Nc2ccc(C(=O)O)cc2)CC1 (stereo not drawn) [Example 331]', 'Ki', '> 6 µM');

###

# system-name: purified human Factor XIa (Homo sapiens (Human))
# Sequence (P03951 388-625): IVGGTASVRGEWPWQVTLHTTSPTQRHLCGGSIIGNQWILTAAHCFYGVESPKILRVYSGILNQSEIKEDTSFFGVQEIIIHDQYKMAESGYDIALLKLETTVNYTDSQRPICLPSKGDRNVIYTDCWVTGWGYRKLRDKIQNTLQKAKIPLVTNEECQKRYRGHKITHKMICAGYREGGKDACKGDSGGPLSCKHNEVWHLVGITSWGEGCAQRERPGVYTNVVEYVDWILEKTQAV
# Sequence (P03951 19-387 partner): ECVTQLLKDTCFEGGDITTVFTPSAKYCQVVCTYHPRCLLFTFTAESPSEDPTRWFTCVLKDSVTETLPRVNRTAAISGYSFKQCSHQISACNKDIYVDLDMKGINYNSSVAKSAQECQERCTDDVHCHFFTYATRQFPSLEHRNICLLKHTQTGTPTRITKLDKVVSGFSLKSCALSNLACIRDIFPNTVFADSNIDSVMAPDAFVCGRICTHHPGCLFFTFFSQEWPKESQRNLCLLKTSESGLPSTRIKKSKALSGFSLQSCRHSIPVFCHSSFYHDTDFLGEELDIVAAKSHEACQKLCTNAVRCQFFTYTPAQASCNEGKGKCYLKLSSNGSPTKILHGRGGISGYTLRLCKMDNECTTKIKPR
# protocol: Factor XIa enzyme inhibition assay (chromogenic substrate S-2366)
# test-settings: read-out: Factor XIa Ki
Where a name gives a salt, the structure may show the parent alone.
measure-name: Ki (µM)

INSERT INTO assay_data (compound, measure_name, value_unit, inequality_operator, recorded_measurement) VALUES
  ('CN(C)CCNC(=O)c1ccc(-c2cccc3c2CCN(C(=O)c2cn(-c4cccc(Cl)c4F)nn2)[C@H]3C(=O)Nc2ccc(C(=O)O)cc2)cc1 [Example 11, TFA salt]', 'Ki', 'µM', '=', 0.165),
  ('O=C(O)c1ccc(NC(=O)[C@@H]2c3cccc(N4CCN(CC(F)(F)F)CC4)c3CCN2C(=O)[C@H]2CC(c3cccc(Cl)c3F)=NO2)cc1 [Example 230, TFA salt]', 'Ki', 'µM', '<', 0.005);

###

# system-name: purified human plasma kallikrein (Homo sapiens (Human), UniProt P03952)
# Sequence (P03952 391-638): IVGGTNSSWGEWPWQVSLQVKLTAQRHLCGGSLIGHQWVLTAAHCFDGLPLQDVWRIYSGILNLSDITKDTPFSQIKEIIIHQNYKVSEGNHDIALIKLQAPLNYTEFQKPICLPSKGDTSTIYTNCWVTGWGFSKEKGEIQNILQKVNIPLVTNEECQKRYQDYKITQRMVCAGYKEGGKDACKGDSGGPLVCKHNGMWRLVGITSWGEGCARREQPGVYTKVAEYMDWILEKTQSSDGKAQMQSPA
# Sequence (P03952 20-390 partner): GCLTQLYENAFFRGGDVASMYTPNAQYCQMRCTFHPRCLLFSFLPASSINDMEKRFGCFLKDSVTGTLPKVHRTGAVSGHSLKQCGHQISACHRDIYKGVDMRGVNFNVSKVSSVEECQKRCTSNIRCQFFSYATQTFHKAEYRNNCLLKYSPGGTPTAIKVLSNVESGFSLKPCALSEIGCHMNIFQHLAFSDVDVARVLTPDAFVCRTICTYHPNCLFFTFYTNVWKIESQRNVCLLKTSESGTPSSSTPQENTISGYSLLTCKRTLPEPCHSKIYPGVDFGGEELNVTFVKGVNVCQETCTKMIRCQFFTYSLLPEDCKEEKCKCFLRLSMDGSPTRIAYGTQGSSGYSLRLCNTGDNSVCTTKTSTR
# protocol: Plasma kallikrein enzyme inhibition assay (chromogenic substrate S-2302)
# Format: biochemical
# test-settings: measured at 37° C. (*)
Structures can show the parent of a compound that is named as a salt.
measure-name: Ki (nM)

INSERT INTO assay_data (compound, value_unit, inequality_operator, recorded_measurement) VALUES
  ('O=C(Nc1ccc(-c2ncc[nH]2)cc1)C1c2cccc(-c3cncnc3)c2CCN1C(=O)c1cn(-c2cccc(Cl)c2F)cn1 (stereo not drawn) [Example 137, TFA]', 'nM', '=', 53.4),
  ('COC1CCN(c2cccc3c2CCN(C(=O)c2cn(-c4cccc(Cl)c4F)nn2)C3C(=O)Nc2ccc(C(N)=O)cc2)CC1 (stereo not drawn) [Example 335, TFA salt]', 'nM', '=', 96.9),
  ('Cn1ncnc1-c1cccc2c1CCN(C(=O)c1cn(-c3cccc(Cl)c3F)nn1)C2C(=O)Nc1ccc(C(=O)O)cc1 (stereo not drawn) [Example 245, TFA salt]', 'nM', '=', 68.2),
  ('COC(=O)c1ccc(NC(=O)[C@@H]2c3cccc(-c4cncnc4)c3CCN2C(=O)c2cn(-c3cccc(Cl)c3F)nn2)cc1 [Example 26]', 'nM', '=', 62),
  ('COC(=O)[C@H]1CC[C@@H](NC(=O)C2c3cccc(-c4cncnc4)c3CCN2C(=O)c2cn(-c3cccc(Cl)c3F)nn2)CC1 (stereo partly drawn) [Example 132]', 'nM', '=', 1620),
  ('O=C(Nc1ccc(-c2cc[nH]n2)cc1)C1c2cccc(-c3cncnc3)c2CCN1C(=O)c1cn(-c2cccc(Cl)c2F)nn1 (stereo not drawn) [Example 127, TFA salt]', 'nM', '=', 196),
  ('O=C(Nc1ccc(-c2ncc[nH]2)cc1)[C@@H]1c2cccc(-c3cncnc3)c2CCN1C(=O)c1cn(-c2cccc(Cl)c2F)nn1 [Example 138, TFA salt]', 'nM', '=', 25.9),
  ('CC(C)c1nnc2n1CCN(c1cccc3c1CCN(C(=O)[C@H]1CC(c4cccc(Cl)c4F)=NO1)[C@H]3C(=O)Nc1ccc(C(=O)O)cc1)C2 [Example 337, TFA salt]', 'nM', '=', 68.1),
  ('O=C(NC12CCC(C(=O)O)(CC1)CC2)C1c2cccc(-c3cncnc3)c2CCN1C(=O)c1cn(-c2cccc(Cl)c2F)nn1 (stereo not drawn) [Example 143, TFA]', 'nM', '=', 237),
  ('Cc1c(C(=O)N2CCc3c(-c4cncnc4)cccc3C2C(=O)Nc2ccc(-c3ncc[nH]3)cc2)ncn1-c1cccc(Cl)c1F (stereo not drawn) [Example 136, TFA salt]', 'nM', '=', 157),
  ('COC1CCN(c2cccc3c2CCN(C(=O)[C@H]2CC(c4cccc(Cl)c4F)=NO2)[C@H]3C(=O)Nc2cccc(F)c2)CC1 (single isomer, unassigned) [Example 238, TFA salt]', 'nM', '>', 4340),
  ('O=C(Nc1ccc(CO)cc1)C1c2cccc(Br)c2CCN1C(=O)c1cn(-c2cccc(Cl)c2F)nn1 (stereo not drawn) [Example 120]', 'nM', '=', 517);

###

# system-name: purified human plasma kallikrein (Homo sapiens (Human), UniProt P03952)
# protocol: Plasma kallikrein enzyme inhibition assay (chromogenic substrate S-2302)
# Format: biochemical
# test-settings: measured at 25° C. (no asterisk)
Structures can show the parent of a compound that is named as a salt.
Note to self: Ki under 10 nM means criterion met, ties and anything higher get criterion not met.

INSERT INTO assay_data (molecule, group) VALUES
  ('Nc1ccc(-c2cccc3c2CCN(C(=O)c2cn(-c4cccc(Cl)c4F)nn2)C3C(=O)Nc2ccc(C(=O)O)cc2)cn1 (stereo not drawn) [Example 39, bis-TFA salt]', 'criterion met'),
  ('CN(C)C(=O)C1CCN(c2cccc3c2CCN(C(=O)c2cn(-c4cccc(Cl)c4F)cn2)[C@H]3C(=O)Nc2ccc(C(=O)O)cc2)CC1 (single isomer, unassigned) [Example 62, TFA salt]', 'criterion not met'),
  ('COC1CCN(c2cccc3c2CCN(C(=O)c2cn(-c4cccc(Cl)c4F)nc2O)C3C(=O)Nc2ccc(C(=O)O)cc2)CC1 (racemic) [Example 264, TFA salt]', 'criterion not met'),
  ('COC1CCN(c2cccc3c2CCN(C(=O)c2cn(-c4c(F)ccc(Cl)c4F)cn2)C3C(=O)Nc2ccc(C(=O)O)cc2)CC1 (racemic) [Example 312, TFA salt]', 'criterion not met'),
  ('CN(C)CCNC(=O)c1ccc(-c2cccc3c2CCN(C(=O)c2cn(-c4cccc(Cl)c4F)nn2)[C@H]3C(=O)Nc2ccc(C(=O)O)cc2)cc1 [Example 11, TFA salt]', 'criterion not met'),
  ('COC1CCN(c2cccc3c2CCN(C(=O)c2cnc(-c4cccc(Cl)c4F)s2)C3C(=O)Nc2ccc(C(=O)O)cc2)CC1 (racemic) [Example 270, TFA salt]', 'criterion not met'),
  ('O=C(O)c1ccc(NC(=O)[C@@H]2c3ccccc3CCN2C(=O)c2cn(-c3cccc(Cl)c3F)nn2)cc1', 'criterion not met'),
  ('COC1CCN(c2cccc3c2CCN(C(=O)c2cnn(-c4cccc(Cl)c4F)c2)[C@@H]3C(=O)Nc2ccc(C(=O)O)cc2)CC1 [Example 315, TFA salt]', 'criterion not met'),
  ('O=C(O)c1ccc(NC(=O)[C@@H]2c3cccc(N4CCOCC4)c3CCN2C(=O)c2cnn(-c3cccc(Cl)c3F)c2)cc1 [Example 89, TFA salt]', 'criterion not met'),
  ('CN(C)C(=O)C1CCN(c2cccc3c2CCN(C(=O)c2cn(-c4cccc(Cl)c4F)nn2)C3C(=O)Nc2ccc(C(=O)O)cc2)CC1 (stereo not drawn) [Example 56, TFA salt]', 'criterion met'),
  ('CN(C)Cc1ccc(-c2cccc3c2CCN(C(=O)c2cn(-c4cccc(Cl)c4F)nn2)C3C(=O)Nc2ccc(C(=O)O)cc2)cc1 (stereo not drawn) [Example 154, TFA salt]', 'criterion met'),
  ('CC(C)c1nnc2n1CCN(c1cccc3c1CCN(C(=O)c1cn(-c4cccc(Cl)c4F)nn1)C3C(=O)Nc1ccc(C(=O)O)cc1)C2 (stereo not drawn) [Example 64, TFA salt]', 'criterion met');

###

# system-name: purified human plasma kallikrein (Homo sapiens (Human), UniProt P03952)
# protocol: Plasma kallikrein enzyme inhibition assay (chromogenic substrate S-2302)
# Type: biochemical
# test-settings: measured at 25° C. (no asterisk)
Counter-ions that a name gives are not always drawn.
measure-name: Ki (nM)

INSERT INTO results (compound, recorded_measurement) VALUES
  ('COC1CCN(c2cccc3c2CCN(C(=O)c2cn(-c4c(F)ccc(Cl)c4F)nn2)C3C(=O)Nc2ccc(C(=O)O)cc2)CC1 (racemic) [Example 254, TFA salt]', 26.7),
  ('CN(C)C1CCN(c2cccc3c2CCN(C(=O)c2cnn(-c4cccc(Cl)c4F)c2)[C@H]3C(=O)Nc2ccc(C(=O)O)cc2)CC1 (single isomer, unassigned) [Example 51, bis-TFA salt]', 340),
  ('O=C(O)c1ccc(NC(=O)C2c3cccc(N4CCC(N5CCCC5)CC4)c3CCN2C(=O)C2CC(c3cccc(Cl)c3)=NO2)cc1 (single isomer, unassigned) [Example 203, TFA salt]', 1.29);

Cited source for all entries: patent US9738655B2
